// reported pIC50 for each item listed
measured on: Cav3.2 (Homo sapiens, UniProt O95180)
Sequence (O95180 whole entry, looked up): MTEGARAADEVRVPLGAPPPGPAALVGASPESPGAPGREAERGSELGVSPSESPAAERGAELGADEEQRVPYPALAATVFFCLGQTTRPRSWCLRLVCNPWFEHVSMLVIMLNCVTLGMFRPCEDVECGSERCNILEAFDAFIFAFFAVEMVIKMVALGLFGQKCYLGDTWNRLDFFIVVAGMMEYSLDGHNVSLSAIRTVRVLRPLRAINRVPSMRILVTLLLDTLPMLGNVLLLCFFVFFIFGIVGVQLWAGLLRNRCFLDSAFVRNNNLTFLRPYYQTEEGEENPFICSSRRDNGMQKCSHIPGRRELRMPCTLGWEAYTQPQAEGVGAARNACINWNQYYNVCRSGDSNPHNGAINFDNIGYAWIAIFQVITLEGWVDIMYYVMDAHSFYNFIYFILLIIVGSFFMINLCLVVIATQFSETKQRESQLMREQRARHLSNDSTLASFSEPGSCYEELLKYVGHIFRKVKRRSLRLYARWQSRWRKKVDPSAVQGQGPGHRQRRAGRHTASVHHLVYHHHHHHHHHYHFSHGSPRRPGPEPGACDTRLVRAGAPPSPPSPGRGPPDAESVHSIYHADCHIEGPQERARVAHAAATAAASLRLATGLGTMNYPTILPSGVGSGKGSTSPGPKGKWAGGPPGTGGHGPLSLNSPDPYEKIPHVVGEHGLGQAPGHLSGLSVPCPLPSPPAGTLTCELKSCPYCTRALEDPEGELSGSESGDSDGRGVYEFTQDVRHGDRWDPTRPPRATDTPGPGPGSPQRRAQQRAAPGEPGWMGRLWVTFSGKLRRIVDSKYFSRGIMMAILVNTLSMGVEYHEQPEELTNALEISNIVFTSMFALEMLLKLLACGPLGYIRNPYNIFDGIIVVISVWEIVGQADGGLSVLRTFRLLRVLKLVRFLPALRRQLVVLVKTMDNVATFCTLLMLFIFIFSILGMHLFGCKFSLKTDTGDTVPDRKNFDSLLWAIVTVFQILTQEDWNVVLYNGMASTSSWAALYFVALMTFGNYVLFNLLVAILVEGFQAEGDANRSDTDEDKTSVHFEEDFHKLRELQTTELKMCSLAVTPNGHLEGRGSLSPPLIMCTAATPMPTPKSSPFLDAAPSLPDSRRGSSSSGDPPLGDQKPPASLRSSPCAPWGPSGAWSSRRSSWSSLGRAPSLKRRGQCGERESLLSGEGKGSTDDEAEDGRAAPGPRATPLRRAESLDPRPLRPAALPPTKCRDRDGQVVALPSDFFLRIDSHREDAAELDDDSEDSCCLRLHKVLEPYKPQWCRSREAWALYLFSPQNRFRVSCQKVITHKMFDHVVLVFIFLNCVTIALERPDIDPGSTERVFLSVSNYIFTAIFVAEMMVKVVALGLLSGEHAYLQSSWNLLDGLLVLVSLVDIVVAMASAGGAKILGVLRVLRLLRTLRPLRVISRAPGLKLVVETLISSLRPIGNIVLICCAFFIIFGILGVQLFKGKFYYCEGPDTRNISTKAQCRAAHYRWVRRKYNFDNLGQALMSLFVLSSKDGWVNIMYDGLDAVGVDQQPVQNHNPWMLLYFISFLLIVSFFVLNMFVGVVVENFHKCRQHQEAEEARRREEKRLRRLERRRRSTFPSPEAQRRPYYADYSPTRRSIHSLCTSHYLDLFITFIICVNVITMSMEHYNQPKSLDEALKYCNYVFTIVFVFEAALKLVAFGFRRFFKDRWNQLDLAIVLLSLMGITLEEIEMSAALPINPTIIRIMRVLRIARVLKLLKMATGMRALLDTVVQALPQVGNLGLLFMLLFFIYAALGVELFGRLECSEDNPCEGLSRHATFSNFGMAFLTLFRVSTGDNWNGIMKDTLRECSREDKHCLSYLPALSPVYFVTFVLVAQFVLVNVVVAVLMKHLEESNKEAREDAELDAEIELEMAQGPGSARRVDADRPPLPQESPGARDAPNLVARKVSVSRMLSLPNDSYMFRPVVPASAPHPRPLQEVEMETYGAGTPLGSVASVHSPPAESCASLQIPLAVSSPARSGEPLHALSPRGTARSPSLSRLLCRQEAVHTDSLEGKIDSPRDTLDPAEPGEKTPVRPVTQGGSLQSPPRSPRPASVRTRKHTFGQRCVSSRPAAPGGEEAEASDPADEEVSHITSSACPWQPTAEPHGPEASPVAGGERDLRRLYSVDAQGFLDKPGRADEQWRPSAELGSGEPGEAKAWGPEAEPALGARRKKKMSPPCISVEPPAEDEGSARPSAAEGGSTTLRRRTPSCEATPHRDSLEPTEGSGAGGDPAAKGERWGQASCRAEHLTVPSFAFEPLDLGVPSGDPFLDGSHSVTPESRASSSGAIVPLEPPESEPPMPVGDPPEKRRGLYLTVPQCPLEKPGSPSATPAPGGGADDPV
procedure details: Calcium flux FLIPR assay, HEK293 cells recombinantly expressing Cav3.2
protocol conditions: Cav3.2-channel, Ca2+ entry stimulated by 10 mM CaCl2
pIC50: −log10 of the molar value.
result type: pIC50

{"cpd smiles": "N#Cc1ccc(Cn2ncc(NC(=O)Cc3ccc(C(F)(F)F)cc3)n2)cc1F", "endpoint value": 7.21}
{"cpd smiles": "COc1c(F)cc(Cn2ncc(NC(=O)Cc3ccc4c(c3)c(C)cn4C)n2)cc1F", "endpoint value": 7.80}
{"cpd smiles": "COc1ccc(Cn2ncc(NC(=O)Cc3ccc(C4(C(F)(F)F)CC4)cc3)n2)cc1F", "endpoint value": 6.60}
{"cpd smiles": "COc1ccc(Cn2ncc(NC(=O)Cc3ccc(C(C)(C)C)cc3)n2)cc1OC", "endpoint value": 6.77}
{"cpd smiles": "O=C(Cc1ccc(N2CCC(F)(F)C2)nc1)Nc1cnn(Cc2ccc(OC(F)(F)F)c(F)c2)n1", "endpoint value": 7.77}
{"cpd smiles": "CC(C)(c1ccc(CC(=O)Nc2cnn(Cc3ccc(C#N)c(F)c3)n2)cc1)C(F)(F)F", "endpoint value": 7.04}
{"cpd smiles": "N#Cc1ccc(Cn2ncc(NC(=O)Cc3cnc(N4CCCC4)c(F)c3)n2)cc1F", "endpoint value": 7.60}
{"cpd smiles": "O=C(Cc1ccc(N2CCCC2)nc1)Nc1cnn(Cc2ccc(F)c(F)c2)n1", "endpoint value": 7.82}

----------
measured on: Cav3.2 (Homo sapiens, UniProt O95180)
procedure details: Calcium flux FLIPR assay, HEK293 cells recombinantly expressing Cav3.2
protocol conditions: Cav3.2-channel, Ca2+ entry stimulated by 10 mM CaCl2
Method: In Vitro Methods—Measurement of Calcium Channel Flux by Means of FLIPR Assays. […] Stock solutions of test compounds are prepared to a concentration of 10 mM in DMSO. […] The kinetics of fluorescence increase are recorded for every well and the area under the fluorescence trace for every compound concentration is used to generate inhibition curves using non-linear regression sigmoidal concentration-response curve analysis with in-house software. […]
pIC50: −log10 of the molar value.

{"compound": "CC1(c2ccc(CC(=O)Nc3cnn(Cc4ccc(F)c(F)c4)n3)cc2)COC1 [Example 22]", "measured on": "Cav3.2 (Homo sapiens, UniProt O95180)", "pIC50": 7.82}
{"compound": "Cc1nn(C)c2ccc(CC(=O)Nc3cnn(Cc4ccc(OC(F)(F)F)c(F)c4)n3)cc12 [Example 191]", "measured on": "Cav3.2 (Homo sapiens, UniProt O95180)", "pIC50": 7.96}
{"compound": "Cc1ccc(Cn2ncc(NC(=O)Cc3ccc(C(C)C)cc3)n2)cc1 [Example 24]", "measured on": "Cav3.2 (Homo sapiens, UniProt O95180)", "pIC50": 7.43}
{"compound": "O=C(Cc1ccc(C2(C(F)(F)F)CC2)cc1)Nc1cnn(Cc2ccc(OC(F)F)c(F)c2)n1 [Example 181]", "measured on": "Cav3.2 (Homo sapiens, UniProt O95180)", "pIC50": 7.07}
{"compound": "COc1cc(Cn2ncc(NC(=O)Cc3ccc(OCC4(F)COC4)cc3)n2)cc(F)c1F [Example 229]", "measured on": "Cav3.2 (Homo sapiens, UniProt O95180)", "pIC50": 6.89}
{"compound": "CC(C)c1ccc(CC(=O)Nc2cnn(Cc3ccc(C#N)c(F)c3)n2)cc1 [Example 74]", "measured on": "Cav3.2 (Homo sapiens, UniProt O95180)", "pIC50": 7.35}
{"compound": "COc1ccc(Cn2ncc(NC(=O)Cc3ccc(N4CCC(F)(F)C4)nc3)n2)cc1OC [Example 48]", "measured on": "Cav3.2 (Homo sapiens, UniProt O95180)", "pIC50": 6.28}
{"compound": "Cn1ccc2cc(CC(=O)Nc3cnn(Cc4ccc(OC(F)F)cc4)n3)ccc21 [Example 89]", "measured on": "Cav3.2 (Homo sapiens, UniProt O95180)", "pIC50": 7.70}
{"compound": "COc1cc(Cn2ncc(NC(=O)Cc3ccc(C(C)C)cc3)n2)ccc1F [Example 153]", "measured on": "Cav3.2 (Homo sapiens, UniProt O95180)", "pIC50": 7.15}
{"compound": "COc1cc(Cn2ncc(NC(=O)Cc3ccc(C4(OC)COC4)cc3)n2)cc(F)c1F [Example 228]", "measured on": "Cav3.2 (Homo sapiens, UniProt O95180)", "pIC50": 6.52}
{"compound": "Cc1nn(C)c2ccc(CC(=O)Nc3cnn(Cc4ccc(C#N)cc4)n3)cc12 [Example 102]", "measured on": "Cav3.2 (Homo sapiens, UniProt O95180)", "pIC50": 6.80}
{"compound": "Cc1cc(CC(=O)Nc2cnn(Cc3ccc(C#N)c(F)c3)n2)ccc1OCC(F)(F)F [Example 199]", "measured on": "Cav3.2 (Homo sapiens, UniProt O95180)", "pIC50": 7.77}
{"compound": "Cc1cn(C)c2ccc(CC(=O)Nc3cnn(Cc4ccc(C#N)cc4)n3)cc12 [Example 100]", "measured on": "Cav3.2 (Homo sapiens, UniProt O95180)", "pIC50": 7.66}
{"compound": "N#Cc1ccc(Cn2ncc(NC(=O)Cc3ccc(C4(C(F)(F)F)CC4)cc3)n2)nc1 [Example 245]", "measured on": "Cav3.2 (Homo sapiens, UniProt O95180)", "pIC50": 6.72}
{"compound": "COc1ccc(Cn2ncc(NC(=O)Cc3ccc(OC4CC(F)(F)C4)cc3)n2)cc1C#N [Example 223]", "measured on": "Cav3.2 (Homo sapiens, UniProt O95180)", "pIC50": 6.92}
{"compound": "COc1c(F)cc(Cn2ncc(NC(=O)Cc3ccc(C4(C(F)(F)F)CC4)cc3)n2)cc1F [Example 145]", "measured on": "Cav3.2 (Homo sapiens, UniProt O95180)", "pIC50": 6.92}
{"compound": "O=C(Cc1ccc2[nH]nc(C(F)(F)F)c2c1)Nc1cnn(Cc2ccc(F)c(F)c2)n1 [Example 39]", "measured on": "Cav3.2 (Homo sapiens, UniProt O95180)", "pIC50": 6.55}
{"compound": "Cc1ccc(Cn2ncc(NC(=O)Cc3ccc4cnn(C)c4c3)n2)cc1C#N [Example 215]", "measured on": "Cav3.2 (Homo sapiens, UniProt O95180)", "pIC50": 6.19}
{"compound": "Cn1ncc2cc(CC(=O)Nc3cnn(Cc4ccc(C#N)c(F)c4)n3)ccc21 [Example 76]", "measured on": "Cav3.2 (Homo sapiens, UniProt O95180)", "pIC50": 6.92}
{"compound": "COc1c(F)cc(Cn2ncc(NC(=O)Cc3ccc(C4(C)COC4)cc3)n2)cc1F [Example 78]", "measured on": "Cav3.2 (Homo sapiens, UniProt O95180)", "pIC50": 7.31}
{"compound": "COc1ccc(Cn2ncc(NC(=O)Cc3ccc(C4(C)COC4)cc3)n2)cc1 [Example 60]", "measured on": "Cav3.2 (Homo sapiens, UniProt O95180)", "pIC50": 6.92}
{"compound": "Cc1ccc(Cn2ncc(NC(=O)Cc3ccc(C(C)(C)C)cc3)n2)cc1C#N [Example 217]", "measured on": "Cav3.2 (Homo sapiens, UniProt O95180)", "pIC50": 6.80}
{"compound": "COc1cc(Cn2ncc(NC(=O)Cc3ccc(OCC4CC(F)(F)C4)cc3)n2)ccc1F [Example 111]", "measured on": "Cav3.2 (Homo sapiens, UniProt O95180)", "pIC50": 7.24}
{"compound": "CC(C)(C#N)c1ccc(CC(=O)Nc2cnn(Cc3ccc(C#N)c(F)c3)n2)cc1 [Example 157]", "measured on": "Cav3.2 (Homo sapiens, UniProt O95180)", "pIC50": 7.51}
{"compound": "O=C(Cc1ccc(OC2CC2)cc1)Nc1cnn(Cc2ccc(F)c(F)c2)n1 [Example 10]", "measured on": "Cav3.2 (Homo sapiens, UniProt O95180)", "pIC50": 7.64}
{"compound": "Cc1ccc(Cn2ncc(NC(=O)Cc3ccc(N4CCC(F)(F)C4)nc3)n2)cc1C#N [Example 211]", "measured on": "Cav3.2 (Homo sapiens, UniProt O95180)", "pIC50": 7.09}
{"compound": "COc1cc(Cn2ncc(NC(=O)Cc3ccc(C4(F)COC4)cc3)n2)ccc1F [Example 116]", "measured on": "Cav3.2 (Homo sapiens, UniProt O95180)", "pIC50": 6.85}
{"compound": "CC(C)(C)c1ccc(CC(=O)Nc2cnn(Cc3ccc(C#N)cn3)n2)cc1 [Example 244]", "measured on": "Cav3.2 (Homo sapiens, UniProt O95180)", "pIC50": 7.47}
{"compound": "N#Cc1ccc(Cn2ncc(NC(=O)Cc3ccc(OCC4(F)COC4)cc3)n2)cc1 [Example 194]", "measured on": "Cav3.2 (Homo sapiens, UniProt O95180)", "pIC50": 6.47}
{"compound": "N#Cc1ccc(Cn2ncc(NC(=O)Cc3ccc(C4(C#N)CC4)cc3)n2)cc1F [Example 231]", "measured on": "Cav3.2 (Homo sapiens, UniProt O95180)", "pIC50": 7.44}
{"compound": "Cc1nn(C)c2ccc(CC(=O)Nc3cnn(Cc4ccc(C#N)c(F)c4)n3)cc12 [Example 177]", "measured on": "Cav3.2 (Homo sapiens, UniProt O95180)", "pIC50": 7.48}
{"compound": "COc1ccc(Cn2ncc(NC(=O)Cc3ccc(N4CCCC4)nc3)n2)cc1OC [Example 51]", "measured on": "Cav3.2 (Homo sapiens, UniProt O95180)", "pIC50": 6.22}
{"compound": "COc1ccc(Cn2ncc(NC(=O)Cc3ccc4c(c3)c(C)cn4C)n2)cc1F [Example 129]", "measured on": "Cav3.2 (Homo sapiens, UniProt O95180)", "pIC50": 7.32}
{"compound": "CCCn1ncc2cc(CC(=O)Nc3cnn(Cc4ccc(F)c(F)c4)n3)ccc21 [Example 34]", "measured on": "Cav3.2 (Homo sapiens, UniProt O95180)", "pIC50": 7.74}

All values here come from patent US10246426B2.
